Run Description: Cytotoxicity against mouse J774A1 cells assessed as cell viability at IC50 by MTT assay relative to control
Type: cell-based, J774.A1
Study Conditions: read-out: Activity
Quantity Measured: viability
Note: a bare number is incomplete; add the unit.

Reference set, count: 3
Molecule	viability
C=C(C)[C@@H]1CC[C@]2(C)CC[C@]3(C)[C@H](CC[C@@H]4[C@@]5(C)CCC(=S)C(C)(C)[C@@H]5CC[C@]43C)[C@@H]12	91.9%
C=C(C)[C@@H]1CC[C@]2(C)CC[C@]3(C)[C@H](CC[C@@H]4[C@@]5(C)Cc6c([nH]c7ccc(Br)cc67)C(C)(C)[C@@H]5CC[C@]43C)[C@@H]12	90.8%
C=C(C=O)[C@@H]1CC[C@]2(C)CC[C@]3(C)[C@H](CC[C@@H]4[C@@]5(C)CC[C@H](O)C(C)(C)[C@@H]5CC[C@]43C)[C@@H]12	92.1%

Request: What value of viability has been recorded for this entry: C=C(C)[C@@H]1CC[C@]2(C)CC[C@]3(C)[C@H](CC[C@@H]4[C@@]5(C)CC[C@H](OC(C)=O)C(C)(C)[C@@H]5CC[C@]43C)C12 (single isomer, unassigned) [LUPENYL ACETATE]
Result: 83.5%

Request: Repeat for the following molecule: "C=C(C)[C@@H]1CC[C@]2(C)CC[C@]3(C)[C@H](CC[C@@H]4[C@@]5(C)Cc6c([nH]c7ccc(I)cc67)C(C)(C)[C@@H]5CC[C@]43C)[C@@H]12"
Result: 93.3%

Request: Lookup "C=C(C)[C@@H]1CC[C@]2(C)CC[C@]3(C)[C@H](CC[C@@H]4[C@@]5(C)CC[C@H](OC(=O)CC(C)(C)C(=O)O)C(C)(C)[C@@H]5CC[C@]43C)[C@@H]12"
Result: 83.6%

Request: Do the same for "C=C(C)[C@@H]1CC[C@]2(C)CC[C@]3(C)[C@H](CC[C@@H]4[C@@]5(C)Cc6c([nH]c7c(C)ccc(C)c67)C(C)(C)[C@@H]5CC[C@]43C)[C@@H]12" please
Result: 91.5%

Request: Next: "C=C(C)[C@@H]1CC[C@]2(C)CC[C@]3(C)[C@H](CC[C@@H]4[C@@]5(C)Cc6c([nH]c7ccc(F)cc67)C(C)(C)[C@@H]5CC[C@]43C)[C@@H]12"
Result: 92.1%

Request: Another: "C=C(C)[C@@H]1CC[C@]2(C)CC[C@]3(C)[C@H](CC[C@@H]4[C@@]5(C)CC[C@H](OC(=O)CCC(=O)O)C(C)(C)[C@@H]5CC[C@]43C)[C@@H]12"
Result: 90.1%

Request: Same lookup for "C=C(C)[C@@H]1CC[C@]2(C)CC[C@]3(C)[C@H](CC[C@@H]4[C@@]5(C)Cc6c([nH]c7ccccc67)C(C)(C)[C@@H]5CC[C@]43C)[C@@H]12" , please.
Result: 90.3%
